target: FRK (human); assay: radiometric filter-binding kinase assay, Kinase HotSpot; details: compound 0.5 µM; ATP 10 µM
# residual activity annotations
EXPERIMENTAL READOUT: residual activity (%)

MOL SMILES	VALUE UNIT	MEASUREMENT
O=C1NC(=O)/C(=C\c2ccc3nccnc3c2)S1	%	91.7
COc1ccc(OC)c2c(=S)c3ccccc3[nH]c12	%	88.8
COc1cc2ncnc(N3CCN(C(=O)Nc4ccc(Oc5ccccc5)cc4)CC3)c2cc1OC	%	90.2

---

target: HIPK3 (human) (UniProt Q9H422); assay: radiometric filter-binding kinase assay, Kinase HotSpot; conditions: compound 0.5 µM; ATP 10 µM
Sequence (Q9H422 whole entry, looked up): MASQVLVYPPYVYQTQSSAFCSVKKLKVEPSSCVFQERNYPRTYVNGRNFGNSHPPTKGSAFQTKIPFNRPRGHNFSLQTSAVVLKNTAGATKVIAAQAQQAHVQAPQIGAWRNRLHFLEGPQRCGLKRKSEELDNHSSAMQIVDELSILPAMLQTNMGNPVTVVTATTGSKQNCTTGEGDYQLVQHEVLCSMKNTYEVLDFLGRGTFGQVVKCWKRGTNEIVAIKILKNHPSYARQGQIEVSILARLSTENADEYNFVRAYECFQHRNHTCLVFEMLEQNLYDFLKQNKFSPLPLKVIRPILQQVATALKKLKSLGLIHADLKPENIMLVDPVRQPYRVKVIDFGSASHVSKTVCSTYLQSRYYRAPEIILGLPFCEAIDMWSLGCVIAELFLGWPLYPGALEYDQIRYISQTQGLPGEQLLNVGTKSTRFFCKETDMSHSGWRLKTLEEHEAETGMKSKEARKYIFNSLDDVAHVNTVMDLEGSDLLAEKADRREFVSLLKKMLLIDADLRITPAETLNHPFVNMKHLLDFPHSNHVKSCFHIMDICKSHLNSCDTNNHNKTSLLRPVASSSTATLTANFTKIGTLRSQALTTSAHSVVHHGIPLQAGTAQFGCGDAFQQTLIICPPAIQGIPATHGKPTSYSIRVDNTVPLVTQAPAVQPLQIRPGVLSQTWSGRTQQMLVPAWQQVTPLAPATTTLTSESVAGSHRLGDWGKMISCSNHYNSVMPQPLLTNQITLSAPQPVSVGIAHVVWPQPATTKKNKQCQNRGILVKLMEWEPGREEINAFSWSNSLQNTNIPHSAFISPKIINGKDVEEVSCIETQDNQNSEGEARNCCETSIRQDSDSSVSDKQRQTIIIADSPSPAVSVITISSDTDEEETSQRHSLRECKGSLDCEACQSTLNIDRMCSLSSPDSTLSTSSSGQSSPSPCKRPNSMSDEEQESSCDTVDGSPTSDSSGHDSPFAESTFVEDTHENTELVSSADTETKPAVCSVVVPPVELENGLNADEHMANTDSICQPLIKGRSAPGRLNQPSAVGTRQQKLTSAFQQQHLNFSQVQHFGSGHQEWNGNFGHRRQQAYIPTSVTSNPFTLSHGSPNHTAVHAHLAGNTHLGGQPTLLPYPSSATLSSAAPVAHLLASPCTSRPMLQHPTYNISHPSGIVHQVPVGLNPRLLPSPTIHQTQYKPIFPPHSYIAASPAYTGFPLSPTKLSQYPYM
Listing of recorded residual activity by entry.
EXPERIMENTAL READOUT: residual activity (%)

MOL SMILES	MEASUREMENT
Oc1ccc(Nc2nc(-c3ccc(Cl)cc3)cs2)cc1	109
O=C1NC(=O)C(c2cn(CCCO)c3ncccc23)=C1c1cnccn1	89.2
O=C(CCCc1ccc(-c2ccccc2F)cc1)Nc1ccc(O)cc1	99.4

---

Overview of reported residual activity across a group of compounds:
target: PLK2 (human); test: radiometric filter-binding kinase assay, Kinase HotSpot; conditions: compound 0.5 µM; ATP 10 µM

MOL SMILES	VALUE UNIT	residual activity
COc1cc2ncnc(N3CCN(C(=O)Nc4ccc(Oc5ccccc5)cc4)CC3)c2cc1OC	%	105
CN(C)C[C@H]1CCn2c(c(C3=C(c4cn(C)c5ccccc45)C(=O)NC3=O)c3ccccc32)C1	%	99.9
COc1ccc(OC)c2c(=S)c3ccccc3[nH]c12	%	97.6
Nc1nnc2[nH]c3ccccc3nc1-2	%	101
Cn1nc2c3c(cccc31)C(=O)c1ccccc1-2	%	93.5
O=C(O)/C=C/c1cc(Br)c(Br)c(Br)c1Br	%	51.5
Oc1ccc(Nc2nc(-c3ccc(Cl)cc3)cs2)cc1	%	105
CC(C)c1nn(-c2c(Cl)cccc2Cl)c2nc(Cc3ccc(OCCO)cc3)nc(O)c12	%	99.8
O=C1NC(=O)C(c2c[nH]c3ccccc23)=C1c1c[nH]c2ccccc12	%	97.7

---

biological target: ABL1 (human) (UniProt P00519); assay: radiometric filter-binding kinase assay, Kinase HotSpot; conditions: compound 0.5 µM; ATP 10 µM
Sequence (P00519 whole entry, looked up): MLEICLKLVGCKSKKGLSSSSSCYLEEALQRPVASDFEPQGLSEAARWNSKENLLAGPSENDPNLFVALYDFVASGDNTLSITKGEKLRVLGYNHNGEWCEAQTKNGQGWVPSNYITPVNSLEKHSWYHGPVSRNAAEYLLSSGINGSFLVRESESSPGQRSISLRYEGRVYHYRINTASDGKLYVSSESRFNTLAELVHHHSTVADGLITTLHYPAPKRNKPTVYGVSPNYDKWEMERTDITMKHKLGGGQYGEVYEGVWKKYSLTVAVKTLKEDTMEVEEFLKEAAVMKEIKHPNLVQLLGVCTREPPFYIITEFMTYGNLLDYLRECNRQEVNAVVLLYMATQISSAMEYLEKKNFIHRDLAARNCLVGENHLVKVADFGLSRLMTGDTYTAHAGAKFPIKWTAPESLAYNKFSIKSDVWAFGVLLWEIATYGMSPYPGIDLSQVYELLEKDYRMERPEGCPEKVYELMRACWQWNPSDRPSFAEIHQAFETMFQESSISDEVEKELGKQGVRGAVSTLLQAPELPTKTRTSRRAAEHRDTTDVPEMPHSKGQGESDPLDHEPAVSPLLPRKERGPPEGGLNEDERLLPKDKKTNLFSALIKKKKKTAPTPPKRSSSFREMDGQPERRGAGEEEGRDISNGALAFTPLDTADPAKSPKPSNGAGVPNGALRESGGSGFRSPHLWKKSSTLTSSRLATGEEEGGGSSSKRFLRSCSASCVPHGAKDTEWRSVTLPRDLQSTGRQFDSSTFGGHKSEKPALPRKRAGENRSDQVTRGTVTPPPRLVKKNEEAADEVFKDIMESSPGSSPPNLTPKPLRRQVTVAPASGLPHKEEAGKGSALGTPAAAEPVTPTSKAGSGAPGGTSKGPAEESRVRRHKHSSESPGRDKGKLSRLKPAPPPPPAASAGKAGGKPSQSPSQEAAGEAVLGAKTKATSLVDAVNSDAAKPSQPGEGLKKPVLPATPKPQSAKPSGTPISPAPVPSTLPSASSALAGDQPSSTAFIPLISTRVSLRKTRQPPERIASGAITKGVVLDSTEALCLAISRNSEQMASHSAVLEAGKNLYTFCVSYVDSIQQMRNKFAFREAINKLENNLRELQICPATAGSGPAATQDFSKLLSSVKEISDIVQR
EXPERIMENTAL READOUT: residual activity (%)

MOLECULE	TARGET UNDER TEST	MEASUREMENT
Nc1nnc2[nH]c3ccccc3nc1-2	ABL1 (human) (UniProt P00519)	91.6
COc1ccc(CNC(=O)Nc2ncc([N+](=O)[O-])s2)cc1	ABL1 (human) (UniProt P00519)	96.8
COc1cc2ncc(-c3ccccc3)nc2cc1OC	ABL1 (human) (UniProt P00519)	94.1
Cn1cnc2cc3c(Nc4cccc(Br)c4)ncnc3cc21	ABL1 (human) (UniProt P00519)	32.6
CN([C@@H](Cc1ccc(OS(=O)(=O)c2cccc3cnccc23)cc1)C(=O)N1CCN(c2ccccc2)CC1)S(=O)(=O)c1cccc2cnccc12	ABL1 (human) (UniProt P00519)	100
CC(=O)O/N=C1\C(=C2\C(=O)Nc3cc(Br)ccc32)Nc2ccccc21	ABL1 (human) (UniProt P00519)	43.1
Nc1nccc(-c2c(-c3ccc(F)cc3)ncn2C2CCNCC2)n1	ABL1 (human) (UniProt P00519)	101
CC(C)[C@H](CO)Nc1nc(Nc2cc(N)cc(Cl)c2)c2ncn(C(C)C)c2n1	ABL1 (human) (UniProt P00519)	45.5
Cn1sc(=O)n(Cc2ccccc2)c1=O	ABL1 (human) (UniProt P00519)	104
O=C(O)/C=C/c1cc(Br)c(Br)c(Br)c1Br	ABL1 (human) (UniProt P00519)	81.5
O=C1NC(=O)/C(=C\c2ccc3nccnc3c2)S1	ABL1 (human) (UniProt P00519)	95.7
O=C1Cc2c([nH]c3ccc(Br)cc23)-c2ccccc2N1	ABL1 (human) (UniProt P00519)	82.6
Oc1ccc(Nc2nc(-c3ccc(Cl)cc3)cs2)cc1	ABL1 (human) (UniProt P00519)	99.7
CCN(CC)CCCCN1c2ccccc2Oc2ccc(Cl)cc21	ABL1 (human) (UniProt P00519)	107
CN(C)C[C@H]1CCn2c(c(C3=C(c4cn(C)c5ccccc45)C(=O)NC3=O)c3ccccc32)C1	ABL1 (human) (UniProt P00519)	98
Cc1nc2cc3nc(-c4cccs4)cnc3cc2n1C	ABL1 (human) (UniProt P00519)	80.4
CC(C)c1nn(-c2c(Cl)cccc2Cl)c2nc(Cc3ccc(OCCO)cc3)nc(O)c12	ABL1 (human) (UniProt P00519)	95.6
CCn1cnc2c(Nc3cccc(Cl)c3)nc(N[C@@H]3CCCC[C@@H]3N)nc21	ABL1 (human) (UniProt P00519)	94
O=C1Nc2ccccc2/C1=C1/Nc2ccccc2/C1=N\OCCC(O)CO (configuration not stated)	ABL1 (human) (UniProt P00519)	71.9
O=C1Nc2ccccc2/C1=C1\Nc2ccccc2\C1=N/O	ABL1 (human) (UniProt P00519)	82.5
O=C(CCCc1ccc(-c2ccccc2F)cc1)Nc1ccc(O)cc1	ABL1 (human) (UniProt P00519)	101
COc1ccc(OC)c2c(=S)c3ccccc3[nH]c12	ABL1 (human) (UniProt P00519)	91.7
